Each recorded value in this set is attributed to patent US9717748B2.

# Tested on: Haemophilus parainfluenzae
# method-notes: Expected efficacy of antibiotic agents
# setup-conditions: Gram: neg
metric: Expected efficacy against Haemophilus parainfluenzae

substance-smiles | result
C[C@H]1c2cccc(O)c2C(=O)C2=C(O)[C@]3(O)C(=O)C(C(N)=O)=C(O)[C@@H](N(C)C)[C@@H]3[C@@H](O)[C@@H]21 | yes
O=C(O)c1cn(C2CC2)c2cc(N3CCNCC3)c(F)cc2c1=O | yes
CO/N=C(\C(=O)N[C@@H]1C(=O)N2C(C(=O)O)=C(CSc3nc(=O)c(=O)[nH]n3C)CS[C@H]12)c1csc(N)n1 | yes
CN[C@H](CC(C)C)C(=O)N[C@H]1C(=O)N[C@@H](CC(N)=O)C(=O)N[C@H]2C(=O)N[C@H]3C(=O)N[C@H](C(=O)N[C@H](C(=O)O)c4cc(O)cc(O)c4-c4cc3ccc4O)[C@H](O)c3ccc(c(Cl)c3)Oc3cc2cc(c3O[C@@H]2O[C@H](CO)[C@@H](O)[C@H](O)[C@H]2O[C@H]2C[C@](C)(N)[C@H](O)[C@H](C)O2)Oc2ccc(cc2Cl)[C@H]1O | no

----------
# Tested on: Staphylococcus aureus (MSSA)
# method-notes: Expected efficacy of antibiotic agents
# setup-conditions: Gram: pos
metric: Expected efficacy against Staphylococcus aureus (MSSA)

molecule | result
CN[C@H](CC(C)C)C(=O)N[C@H]1C(=O)N[C@@H](CC(N)=O)C(=O)N[C@H]2C(=O)N[C@H]3C(=O)N[C@H](C(=O)N[C@H](C(=O)O)c4cc(O)cc(O)c4-c4cc3ccc4O)[C@H](O)c3ccc(c(Cl)c3)Oc3cc2cc(c3O[C@@H]2O[C@H](CO)[C@@H](O)[C@H](O)[C@H]2O[C@H]2C[C@](C)(N)[C@H](O)[C@H](C)O2)Oc2ccc(cc2Cl)[C@H]1O [Vancomycin] | yes
CO/N=C(\C(=O)N[C@@H]1C(=O)N2C(C(=O)O)=C(CSc3nc(=O)c(=O)[nH]n3C)CS[C@H]12)c1csc(N)n1 [Ceftriaxone] | yes
O=C(O)c1cn(C2CC2)c2cc(N3CCNCC3)c(F)cc2c1=O [Ciprofloxacin] | no
NC[C@H]1O[C@H](O[C@H]2[C@H](O)[C@@H](O[C@H]3O[C@H](CO)[C@@H](O)[C@H](N)[C@H]3O)[C@H](N)C[C@@H]2N)[C@H](N)C[C@@H]1O [Tobramycin] | no

----------
# Test system: Proteus mirabilis
# method-notes: Expected efficacy of antibiotic agents
# setup-conditions: Gram: neg
metric: Expected efficacy against Proteus mirabilis

Sample records with Expected efficacy against Proteus mirabilis:
substance-smiles | result
C/C(=C\C(=O)OCCCCCCCCC(=O)O)C[C@@H]1OC[C@H](C[C@@H]2O[C@H]2[C@@H](C)[C@H](C)O)[C@@H](O)[C@H]1O | no
O=C(O)c1cn(C2CC2)c2cc(N3CCNCC3)c(F)cc2c1=O | yes
CN[C@H](CC(C)C)C(=O)N[C@H]1C(=O)N[C@@H](CC(N)=O)C(=O)N[C@H]2C(=O)N[C@H]3C(=O)N[C@H](C(=O)N[C@H](C(=O)O)c4cc(O)cc(O)c4-c4cc3ccc4O)[C@H](O)c3ccc(c(Cl)c3)Oc3cc2cc(c3O[C@@H]2O[C@H](CO)[C@@H](O)[C@H](O)[C@H]2O[C@H]2C[C@](C)(N)[C@H](O)[C@H](C)O2)Oc2ccc(cc2Cl)[C@H]1O | no
C[C@H]1c2cccc(O)c2C(=O)C2=C(O)[C@]3(O)C(=O)C(C(N)=O)=C(O)[C@@H](N(C)C)[C@@H]3[C@@H](O)[C@@H]21 | no
CO/N=C(\C(=O)N[C@@H]1C(=O)N2C(C(=O)O)=C(CSc3nc(=O)c(=O)[nH]n3C)CS[C@H]12)c1csc(N)n1 | yes

We now examine a further molecule.
Data point: NC[C@H]1O[C@H](O[C@H]2[C@H](O)[C@@H](O[C@H]3O[C@H](CO)[C@@H](O)[C@H](N)[C@H]3O)[C@H](N)C[C@@H]2N)[C@H](N)C[C@@H]1O ; Expected efficacy against Proteus mirabilis = yes

----------
# Tested on: Klebsiella pneumoniae
# method-notes: Expected efficacy of antibiotic agents
# setup-conditions: Gram: neg
metric: Expected efficacy against Klebsiella pneumoniae

Known results for compounds:
substance-smiles | result
C/C(=C\C(=O)OCCCCCCCCC(=O)O)C[C@@H]1OC[C@H](C[C@@H]2O[C@H]2[C@@H](C)[C@H](C)O)[C@@H](O)[C@H]1O | no
NC[C@H]1O[C@H](O[C@H]2[C@H](O)[C@@H](O[C@H]3O[C@H](CO)[C@@H](O)[C@H](N)[C@H]3O)[C@H](N)C[C@@H]2N)[C@H](N)C[C@@H]1O | yes
O=C(O)c1cn(C2CC2)c2cc(N3CCNCC3)c(F)cc2c1=O | yes
CO/N=C(\C(=O)N[C@@H]1C(=O)N2C(C(=O)O)=C(CSc3nc(=O)c(=O)[nH]n3C)CS[C@H]12)c1csc(N)n1 | yes

Reported Expected efficacy against Klebsiella pneumoniae ( CN[C@H](CC(C)C)C(=O)N[C@H]1C(=O)N[C@@H](CC(N)=O)C(=O)N[C@H]2C(=O)N[C@H]3C(=O)N[C@H](C(=O)N[C@H](C(=O)O)c4cc(O)cc(O)c4-c4cc3ccc4O)[C@H](O)c3ccc(c(Cl)c3)Oc3cc2cc(c3O[C@@H]2O[C@H](CO)[C@@H](O)[C@H](O)[C@H]2O[C@H]2C[C@](C)(N)[C@H](O)[C@H](C)O2)Oc2ccc(cc2Cl)[C@H]1O ) = no

----------
# Test system: Moraxella catarrhalis
# method-notes: Expected efficacy of antibiotic agents
# setup-conditions: Gram: neg
metric: Expected efficacy against Moraxella catarrhalis

Here's what some known entries look like.
compound | target-or-system | result
CN[C@H](CC(C)C)C(=O)N[C@H]1C(=O)N[C@@H](CC(N)=O)C(=O)N[C@H]2C(=O)N[C@H]3C(=O)N[C@H](C(=O)N[C@H](C(=O)O)c4cc(O)cc(O)c4-c4cc3ccc4O)[C@H](O)c3ccc(c(Cl)c3)Oc3cc2cc(c3O[C@@H]2O[C@H](CO)[C@@H](O)[C@H](O)[C@H]2O[C@H]2C[C@](C)(N)[C@H](O)[C@H](C)O2)Oc2ccc(cc2Cl)[C@H]1O [Vancomycin] | Moraxella catarrhalis | no
O=C(O)c1cn(C2CC2)c2cc(N3CCNCC3)c(F)cc2c1=O [Ciprofloxacin] | Moraxella catarrhalis | yes
CO/N=C(\C(=O)N[C@@H]1C(=O)N2C(C(=O)O)=C(CSc3nc(=O)c(=O)[nH]n3C)CS[C@H]12)c1csc(N)n1 [Ceftriaxone] | Moraxella catarrhalis | yes
C[C@H]1c2cccc(O)c2C(=O)C2=C(O)[C@]3(O)C(=O)C(C(N)=O)=C(O)[C@@H](N(C)C)[C@@H]3[C@@H](O)[C@@H]21 [Doxycyline] | Moraxella catarrhalis | yes
C/C(=C\C(=O)OCCCCCCCCC(=O)O)C[C@@H]1OC[C@H](C[C@@H]2O[C@H]2[C@@H](C)[C@H](C)O)[C@@H](O)[C@H]1O [Bactroban] | Moraxella catarrhalis | no

# context switch: different compound, same Expected efficacy against Moraxella catarrhalis
Short answer for NC[C@H]1O[C@H](O[C@H]2[C@H](O)[C@@H](O[C@H]3O[C@H](CO)[C@@H](O)[C@H](N)[C@H]3O)[C@H](N)C[C@@H]2N)[C@H](N)C[C@@H]1O [Tobramycin] : Expected efficacy against Moraxella catarrhalis was yes

----------
# Tested on: Shigella sonnei
# method-notes: Expected efficacy of antibiotic agents
# setup-conditions: Gram: neg
metric: Expected efficacy against Shigella sonnei

Please review the entries below; each comes with its answer.
molecule | result
CN[C@H](CC(C)C)C(=O)N[C@H]1C(=O)N[C@@H](CC(N)=O)C(=O)N[C@H]2C(=O)N[C@H]3C(=O)N[C@H](C(=O)N[C@H](C(=O)O)c4cc(O)cc(O)c4-c4cc3ccc4O)[C@H](O)c3ccc(c(Cl)c3)Oc3cc2cc(c3O[C@@H]2O[C@H](CO)[C@@H](O)[C@H](O)[C@H]2O[C@H]2C[C@](C)(N)[C@H](O)[C@H](C)O2)Oc2ccc(cc2Cl)[C@H]1O [Vancomycin] | no
NC[C@H]1O[C@H](O[C@H]2[C@H](O)[C@@H](O[C@H]3O[C@H](CO)[C@@H](O)[C@H](N)[C@H]3O)[C@H](N)C[C@@H]2N)[C@H](N)C[C@@H]1O [Tobramycin] | yes
C/C(=C\C(=O)OCCCCCCCCC(=O)O)C[C@@H]1OC[C@H](C[C@@H]2O[C@H]2[C@@H](C)[C@H](C)O)[C@@H](O)[C@H]1O [Bactroban] | no
O=C(O)c1cn(C2CC2)c2cc(N3CCNCC3)c(F)cc2c1=O [Ciprofloxacin] | yes

Turning to the following molecule.
Form: molecule = CO/N=C(\C(=O)N[C@@H]1C(=O)N2C(C(=O)O)=C(CSc3nc(=O)c(=O)[nH]n3C)CS[C@H]12)c1csc(N)n1 [Ceftriaxone] ; Expected efficacy against Shigella sonnei = yes
